The measured values listed here are drawn from the kinase profiling compilation of Christmann-Franck et al. (2016).

Biological target: UniProt:Q8IW41
Sequence (Q8IW41 whole entry, looked up): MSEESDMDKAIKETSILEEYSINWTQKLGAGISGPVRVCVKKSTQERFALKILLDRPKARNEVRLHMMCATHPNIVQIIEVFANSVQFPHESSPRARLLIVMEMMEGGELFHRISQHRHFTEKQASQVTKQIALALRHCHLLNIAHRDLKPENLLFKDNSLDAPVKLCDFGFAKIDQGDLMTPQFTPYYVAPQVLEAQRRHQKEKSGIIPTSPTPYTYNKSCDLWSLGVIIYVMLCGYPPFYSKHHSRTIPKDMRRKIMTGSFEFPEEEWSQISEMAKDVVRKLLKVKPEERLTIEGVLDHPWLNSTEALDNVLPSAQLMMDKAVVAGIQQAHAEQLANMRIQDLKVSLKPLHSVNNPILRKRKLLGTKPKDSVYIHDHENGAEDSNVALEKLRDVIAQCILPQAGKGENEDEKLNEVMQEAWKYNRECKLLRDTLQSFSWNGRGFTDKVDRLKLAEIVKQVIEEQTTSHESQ
Assay: Caliper, Mobility shift assay off-chip
Conditions: compound 1.0 µM
Parameter: inhibition (%)
Form entry: value (%) — number only.

**Query** # get_value(readout='inhibition', item= `Cn1cc(-c2cnc3ccc4ccc(CS(=O)(=O)CCc5ccccn5)cc4c(=O)c3c2)cn1` )
**Result** 4.4

**Query** Which value of inhibition has been reported for Cn1cc(-c2cnc3ccc4ccc(CS(=O)(=O)NCC5CCCCN5)cc4c(=O)c3c2)cn1 (stereo not given) in the records?
**Result** -1.1

**Query** Look up inhibition for this compound: `CN(c1ccc2ccc3ncc(-c4cnn(C)c4)cc3c(=O)c2c1)S(=O)(=O)NCc1ccccn1`
**Result** 3

**Query** # inhibition lookup, item `O=C(CCc1ccc2ccc3ncc(C4CCNCC4)cc3c(=O)c2c1)NCc1ccccn1`
**Result** 2.9

**Query** Item under review: `Cn1cc(-c2cnc3ccc4ccc(CS(N)(=O)=O)cc4c(=O)c3c2)cn1` . Reported inhibition?
**Result** -7.9

* * *

So I've got a bunch of compounds here, and I need their inhibition values.
Biological target: FGFR3 (human) (UniProt P22607)
Sequence (P22607 whole entry, looked up): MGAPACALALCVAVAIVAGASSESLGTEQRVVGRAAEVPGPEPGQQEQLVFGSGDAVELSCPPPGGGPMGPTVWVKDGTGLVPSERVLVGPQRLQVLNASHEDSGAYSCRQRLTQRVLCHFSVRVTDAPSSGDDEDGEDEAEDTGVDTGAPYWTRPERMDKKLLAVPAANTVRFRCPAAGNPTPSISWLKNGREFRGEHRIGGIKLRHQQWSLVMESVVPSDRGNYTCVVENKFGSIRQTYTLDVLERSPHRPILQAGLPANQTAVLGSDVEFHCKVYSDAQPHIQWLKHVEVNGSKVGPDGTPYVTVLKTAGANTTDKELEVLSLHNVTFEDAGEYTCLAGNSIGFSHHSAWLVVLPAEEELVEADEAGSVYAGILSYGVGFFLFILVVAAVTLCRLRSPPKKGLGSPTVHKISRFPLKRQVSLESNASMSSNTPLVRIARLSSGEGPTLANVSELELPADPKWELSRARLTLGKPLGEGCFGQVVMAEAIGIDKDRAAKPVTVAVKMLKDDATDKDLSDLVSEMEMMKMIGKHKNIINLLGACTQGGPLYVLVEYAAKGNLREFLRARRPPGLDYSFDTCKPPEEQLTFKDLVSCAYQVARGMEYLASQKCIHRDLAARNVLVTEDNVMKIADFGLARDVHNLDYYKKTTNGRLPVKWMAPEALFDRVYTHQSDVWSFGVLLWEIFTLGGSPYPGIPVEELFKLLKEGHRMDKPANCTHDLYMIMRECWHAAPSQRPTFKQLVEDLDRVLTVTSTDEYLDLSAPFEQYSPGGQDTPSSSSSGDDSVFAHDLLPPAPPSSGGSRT
Assay: Caliper, Mobility shift assay off-chip
Details: compound 0.1 µM
Quick note: number first, unit second.

**Query** I am curious: what inhibition value has been reported for `Cn1cc(-c2cnc3ccc4ccc(CS(N)(=O)=O)cc4c(=O)c3c2)cn1` ?
**Result** 41.1%

**Query** Requested field: inhibition. Item: `CN(c1ccc2ccc3ncc(-c4cnn(C)c4)cc3c(=O)c2c1)S(=O)(=O)NCc1ccccn1`
**Result** 26.3%

**Query** Query (compound): `O=C(CCc1ccc2ccc3ncc(C4CCNCC4)cc3c(=O)c2c1)NCc1ccccn1` ; field requested: inhibition
**Result** 0.5%

**Query** Can you look up the measured inhibition of `Cn1cc(-c2cnc3ccc4ccc(CS(=O)(=O)CCc5ccccn5)cc4c(=O)c3c2)cn1` for me?
**Result** 34.5%

**Query** For the compound shown here, `O=c1c2cc(CS(=O)(=O)NCc3ccccn3)ccc2ccc2ncc(C3CCNCC3)cc12` , give the reported inhibition.
**Result** -12.3%

**Query** Quick check: inhibition of Cn1cc(-c2cnc3ccc4ccc(CS(=O)(=O)NCC5CCCCN5)cc4c(=O)c3c2)cn1 (configuration not stated) ?
**Result** -12.6%

**Query** // inhibition lookup, key: `Cn1cc(-c2cnc3ccc4ccc(CS(=O)(=O)NC5CCCCC5)cc4c(=O)c3c2)cn1`
**Result** 7.8%

* * *

Target: PRKCB2 (human)
Test: Caliper, Mobility shift assay off-chip
Settings: compound 0.1 µM
Parameter: inhibition (%)
Write the value in % as a bare number.

**Query** Look up inhibition: `Cn1cc(-c2cnc3ccc4ccc(CS(=O)(=O)NC5CCCCC5)cc4c(=O)c3c2)cn1`
**Result** 5.7

**Query** For the molecule Cn1cc(-c2cnc3ccc4ccc(CS(=O)(=O)NCC5CCCCN5)cc4c(=O)c3c2)cn1 (configuration not stated) , what inhibition is on record?
**Result** -4.3

**Query** Looking for the measured inhibition of `CN(c1ccc2ccc3ncc(-c4cnn(C)c4)cc3c(=O)c2c1)S(=O)(=O)NCc1ccccn1` , can you help?
**Result** 2.8

**Query** Could you share which inhibition value was measured for `Cn1cc(-c2cnc3ccc4ccc(CS(N)(=O)=O)cc4c(=O)c3c2)cn1` ?
**Result** 2.6

**Query** // inhibition lookup, key: `O=c1c2cc(CS(=O)(=O)NCc3ccccn3)ccc2ccc2ncc(C3CCNCC3)cc12`
**Result** 6

**Query** Fill in: inhibition of `O=C(CCc1ccc2ccc3ncc(C4CCNCC4)cc3c(=O)c2c1)NCc1ccccn1` is ___
**Result** 3.3

**Query** Reported inhibition, molecule `Cn1cc(-c2cnc3ccc4ccc(CS(=O)(=O)CCc5ccccn5)cc4c(=O)c3c2)cn1` : ____
**Result** -4.2

* * *

Molecular target: UniProtKB P06213
Sequence (P06213 whole entry, looked up): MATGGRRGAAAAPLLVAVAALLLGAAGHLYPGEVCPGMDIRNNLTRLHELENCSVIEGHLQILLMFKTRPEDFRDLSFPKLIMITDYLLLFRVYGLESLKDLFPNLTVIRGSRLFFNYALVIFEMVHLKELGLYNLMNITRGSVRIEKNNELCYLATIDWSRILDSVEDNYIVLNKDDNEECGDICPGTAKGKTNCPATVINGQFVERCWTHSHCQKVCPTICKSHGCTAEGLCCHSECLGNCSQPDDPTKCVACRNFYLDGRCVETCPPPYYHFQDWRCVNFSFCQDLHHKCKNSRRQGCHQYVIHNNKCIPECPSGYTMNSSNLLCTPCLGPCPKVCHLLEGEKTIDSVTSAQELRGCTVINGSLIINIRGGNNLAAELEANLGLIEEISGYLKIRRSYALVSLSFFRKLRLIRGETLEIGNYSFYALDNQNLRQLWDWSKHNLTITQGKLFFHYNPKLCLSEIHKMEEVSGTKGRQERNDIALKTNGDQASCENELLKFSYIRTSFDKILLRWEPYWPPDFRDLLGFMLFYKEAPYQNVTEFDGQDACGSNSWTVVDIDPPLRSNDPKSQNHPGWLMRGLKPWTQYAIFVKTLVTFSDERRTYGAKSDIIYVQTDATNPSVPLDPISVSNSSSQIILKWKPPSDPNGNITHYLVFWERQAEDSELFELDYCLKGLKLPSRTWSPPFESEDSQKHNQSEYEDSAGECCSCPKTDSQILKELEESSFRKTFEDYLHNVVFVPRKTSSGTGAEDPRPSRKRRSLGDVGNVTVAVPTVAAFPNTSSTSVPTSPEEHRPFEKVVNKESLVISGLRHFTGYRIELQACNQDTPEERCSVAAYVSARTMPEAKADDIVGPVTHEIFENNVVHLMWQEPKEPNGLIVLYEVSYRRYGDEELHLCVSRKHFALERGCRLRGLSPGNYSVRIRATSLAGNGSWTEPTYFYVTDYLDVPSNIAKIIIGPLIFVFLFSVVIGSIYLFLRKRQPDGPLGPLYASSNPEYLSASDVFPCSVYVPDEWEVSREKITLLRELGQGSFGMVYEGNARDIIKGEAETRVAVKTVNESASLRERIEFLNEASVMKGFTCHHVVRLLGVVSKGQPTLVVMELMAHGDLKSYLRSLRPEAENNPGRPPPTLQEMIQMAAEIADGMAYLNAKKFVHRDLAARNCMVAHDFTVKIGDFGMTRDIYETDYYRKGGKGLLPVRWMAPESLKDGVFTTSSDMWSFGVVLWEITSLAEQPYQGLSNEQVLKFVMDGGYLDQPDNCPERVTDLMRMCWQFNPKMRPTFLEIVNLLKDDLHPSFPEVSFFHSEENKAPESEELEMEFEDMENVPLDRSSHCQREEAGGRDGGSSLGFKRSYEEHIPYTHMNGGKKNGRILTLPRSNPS
Test: Caliper, Mobility shift assay off-chip
Settings: compound 0.1 µM
Parameter: inhibition (%)
Just the number in %, nothing appended.

**Query** Give the measured inhibition of `Cn1cc(-c2cnc3ccc4ccc(CS(=O)(=O)NC5CCCCC5)cc4c(=O)c3c2)cn1` .
**Result** 3.1

**Query** So what does the record say about inhibition for `O=c1c2cc(CS(=O)(=O)NCc3ccccn3)ccc2ccc2ncc(C3CCNCC3)cc12` ?
**Result** -2.5

**Query** Which value of inhibition has been reported for `Cn1cc(-c2cnc3ccc4ccc(CS(N)(=O)=O)cc4c(=O)c3c2)cn1` in the records?
**Result** 12

**Query** State the recorded inhibition for this entry: `Cn1cc(-c2cnc3ccc4ccc(CS(=O)(=O)CCc5ccccn5)cc4c(=O)c3c2)cn1`
**Result** 1.4

**Query** So what does the record say about inhibition for Cn1cc(-c2cnc3ccc4ccc(CS(=O)(=O)NCC5CCCCN5)cc4c(=O)c3c2)cn1 (configuration not stated) ?
**Result** -128

**Query** Any idea what inhibition was measured for `O=C(CCc1ccc2ccc3ncc(C4CCNCC4)cc3c(=O)c2c1)NCc1ccccn1` ?
**Result** 5.1

**Query** Give its inhibition value. Item: `CN(c1ccc2ccc3ncc(-c4cnn(C)c4)cc3c(=O)c2c1)S(=O)(=O)NCc1ccccn1`
**Result** 3.4

* * *

Would you mind telling me the reported inhibition of each entry?
Molecular target: FGFR1 (human) (UniProt P11362)
Sequence (P11362 whole entry, looked up): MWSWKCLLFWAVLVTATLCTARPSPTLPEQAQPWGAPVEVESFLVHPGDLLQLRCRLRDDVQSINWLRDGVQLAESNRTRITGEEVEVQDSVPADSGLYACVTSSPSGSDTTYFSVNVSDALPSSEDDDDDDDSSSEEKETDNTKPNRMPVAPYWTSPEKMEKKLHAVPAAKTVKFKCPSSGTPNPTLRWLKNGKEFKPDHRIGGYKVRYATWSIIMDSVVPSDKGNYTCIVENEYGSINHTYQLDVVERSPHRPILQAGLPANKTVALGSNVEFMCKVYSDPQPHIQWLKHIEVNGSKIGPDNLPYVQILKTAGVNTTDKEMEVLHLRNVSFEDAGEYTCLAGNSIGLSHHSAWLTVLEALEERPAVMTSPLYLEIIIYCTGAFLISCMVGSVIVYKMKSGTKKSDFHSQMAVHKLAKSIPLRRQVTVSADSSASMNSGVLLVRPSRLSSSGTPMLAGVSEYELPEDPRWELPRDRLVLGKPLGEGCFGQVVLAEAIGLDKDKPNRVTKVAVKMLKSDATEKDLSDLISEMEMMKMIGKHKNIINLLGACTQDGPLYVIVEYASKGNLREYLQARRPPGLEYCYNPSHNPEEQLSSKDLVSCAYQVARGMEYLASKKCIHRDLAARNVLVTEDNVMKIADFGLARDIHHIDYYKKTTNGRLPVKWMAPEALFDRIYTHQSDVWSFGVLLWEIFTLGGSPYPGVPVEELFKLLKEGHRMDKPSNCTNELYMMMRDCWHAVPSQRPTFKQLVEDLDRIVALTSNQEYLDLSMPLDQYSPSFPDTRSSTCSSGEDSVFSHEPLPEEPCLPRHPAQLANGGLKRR
Experiment: Caliper, Mobility shift assay off-chip
Settings: compound 0.1 µM
Output spec: scalar in %, unitless text.

**Query** Value lookup for inhibition; key = `O=C(CCc1ccc2ccc3ncc(C4CCNCC4)cc3c(=O)c2c1)NCc1ccccn1`
**Result** 1.5

**Query** Reported inhibition, compound `Cn1cc(-c2cnc3ccc4ccc(CS(=O)(=O)CCc5ccccn5)cc4c(=O)c3c2)cn1` : ____
**Result** 12.3

**Query** GET /values?readout=inhibition&item= `O=c1c2cc(CS(=O)(=O)NCc3ccccn3)ccc2ccc2ncc(C3CCNCC3)cc12`
**Result** 10.7

**Query** Could you tell me which inhibition is on file for `Cn1cc(-c2cnc3ccc4ccc(CS(=O)(=O)NC5CCCCC5)cc4c(=O)c3c2)cn1` ?
**Result** 2.8

**Query** Query (compound): `CN(c1ccc2ccc3ncc(-c4cnn(C)c4)cc3c(=O)c2c1)S(=O)(=O)NCc1ccccn1` ; field requested: inhibition
**Result** -11.4

* * *

Target: PRKCH (human) (UniProt P24723)
Sequence (P24723 whole entry, looked up): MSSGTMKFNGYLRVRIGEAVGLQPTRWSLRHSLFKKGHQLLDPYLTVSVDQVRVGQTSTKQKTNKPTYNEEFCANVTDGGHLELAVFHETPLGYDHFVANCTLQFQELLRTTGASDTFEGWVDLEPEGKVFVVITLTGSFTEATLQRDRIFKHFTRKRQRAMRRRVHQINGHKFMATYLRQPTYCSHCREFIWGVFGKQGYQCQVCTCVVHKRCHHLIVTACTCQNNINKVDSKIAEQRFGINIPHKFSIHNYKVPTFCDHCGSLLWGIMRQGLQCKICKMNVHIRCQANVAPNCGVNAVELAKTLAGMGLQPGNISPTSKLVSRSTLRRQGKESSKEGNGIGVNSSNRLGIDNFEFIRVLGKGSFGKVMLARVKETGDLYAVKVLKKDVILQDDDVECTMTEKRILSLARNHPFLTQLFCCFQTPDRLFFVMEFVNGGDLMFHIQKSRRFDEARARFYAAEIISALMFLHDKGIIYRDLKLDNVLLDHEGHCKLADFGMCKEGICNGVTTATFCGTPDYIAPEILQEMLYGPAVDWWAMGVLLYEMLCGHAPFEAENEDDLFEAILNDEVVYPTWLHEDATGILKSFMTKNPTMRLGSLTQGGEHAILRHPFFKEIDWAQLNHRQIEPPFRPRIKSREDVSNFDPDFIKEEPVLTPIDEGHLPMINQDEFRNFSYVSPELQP
Assay: Caliper, Mobility shift assay off-chip
Details: compound 0.1 µM
Parameter: inhibition

**Query** Reported inhibition, compound `O=c1c2cc(CS(=O)(=O)NCc3ccccn3)ccc2ccc2ncc(C3CCNCC3)cc12` : ____
**Result** -6.9%

**Query** Query (compound): `CN(c1ccc2ccc3ncc(-c4cnn(C)c4)cc3c(=O)c2c1)S(=O)(=O)NCc1ccccn1` ; field requested: inhibition
**Result** 10%

**Query** If you can, please state the reported inhibition value of `Cn1cc(-c2cnc3ccc4ccc(CS(=O)(=O)NC5CCCCC5)cc4c(=O)c3c2)cn1` .
**Result** -14.9%

**Query** Name the reported inhibition value associated with the compound Cn1cc(-c2cnc3ccc4ccc(CS(=O)(=O)NCC5CCCCN5)cc4c(=O)c3c2)cn1 (configuration not stated)
**Result** 3.1%

**Query** Returns the measured inhibition for the input compound. Input: `O=C(CCc1ccc2ccc3ncc(C4CCNCC4)cc3c(=O)c2c1)NCc1ccccn1`
**Result** 7.2%

**Query** Looking for the measured inhibition of `Cn1cc(-c2cnc3ccc4ccc(CS(N)(=O)=O)cc4c(=O)c3c2)cn1` , can you help?
**Result** -6.7%

**Query** GET /values?readout=inhibition&item= `Cn1cc(-c2cnc3ccc4ccc(CS(=O)(=O)CCc5ccccn5)cc4c(=O)c3c2)cn1`
**Result** -8.3%

* * *

Target: MAP4K4 (human)
Assay: Caliper, Mobility shift assay off-chip
Conditions: compound 1.0 µM
Task for the reader: assign each of the following compounds its reported inhibition.
Provide only the numeric value, understood in %.

**Query** inhibition lookup needed for `O=C(CCc1ccc2ccc3ncc(C4CCNCC4)cc3c(=O)c2c1)NCc1ccccn1` , thanks.
**Result** -0.2

**Query** inhibition for `Cn1cc(-c2cnc3ccc4ccc(CS(N)(=O)=O)cc4c(=O)c3c2)cn1` ?
**Result** 1.8

**Query** Bench note: what inhibition did Cn1cc(-c2cnc3ccc4ccc(CS(=O)(=O)NCC5CCCCN5)cc4c(=O)c3c2)cn1 (stereo not given) show?
**Result** 15.7

**Query** Fill in: inhibition of `CN(c1ccc2ccc3ncc(-c4cnn(C)c4)cc3c(=O)c2c1)S(=O)(=O)NCc1ccccn1` is ___
**Result** 56.3

**Query** Find the recorded inhibition belonging to `Cn1cc(-c2cnc3ccc4ccc(CS(=O)(=O)CCc5ccccn5)cc4c(=O)c3c2)cn1` and report it.
**Result** 10.6
